Sequence of the target: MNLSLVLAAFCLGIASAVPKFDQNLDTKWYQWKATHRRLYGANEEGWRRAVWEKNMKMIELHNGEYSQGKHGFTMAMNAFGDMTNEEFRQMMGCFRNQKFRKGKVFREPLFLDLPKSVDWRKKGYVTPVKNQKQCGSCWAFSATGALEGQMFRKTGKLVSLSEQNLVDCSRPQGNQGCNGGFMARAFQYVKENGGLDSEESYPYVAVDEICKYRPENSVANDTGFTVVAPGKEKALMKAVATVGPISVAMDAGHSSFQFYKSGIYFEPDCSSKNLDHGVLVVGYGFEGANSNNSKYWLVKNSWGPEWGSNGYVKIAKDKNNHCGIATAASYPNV
Parameter Measured: pKi
Numbers only, as −log10 of the molar value.

Reported pKi, compound CC(C)C[C@H](NC(=O)c1cc2ccccc2o1)C(=O)N[C@H]1CC[C@@H](C)N(S(=O)(=O)c2ccccn2)CC1=O : ____
10.20
